Attribute: IC50
tgt: SARS-CoV2 Mpro (Severe acute respiratory syndrome coronavirus 2 (2019-nCoV) (SARS-CoV-2))
property: IC50

- COc1ccc2[nH]c(C(=O)N3CC4(CCC4)CC3C(=O)N[C@H](C#N)C[C@@H]3CCNC3=O)cc2c1Cl (single isomer, unassigned) [886 (Isomer 1)]: > 30 µM
- COCCOCCOC(=O)N[C@@H](CC1CC1)C(=O)N[C@H](C#N)C[C@@H]1CCNC1=O: 2 to 10 µM
- COc1cccc2[nH]c(C(=O)N[C@@H](CC3CC3(F)F)C(=O)N[C@H](C#N)C[C@@H]3CCCNC3=O)cc12 (single isomer, unassigned) [1059 (Isomer 2)]: 10 to 30 µM
- COc1cccc2[nH]c(C(=O)N[C@@H](Cc3cccnc3)C(=O)N[C@H](C#N)C[C@@H]3CCNC3=O)cc12: 2 to 10 µM
- COc1ccc(Cl)c2[nH]c(C(=O)N3CC4(CCCCC4)CC3C(=O)NC(C#N)C[C@@H]3CCCNC3=O)cc12 (single isomer, unassigned) [902 (Isomer 4)]: > 30 µM
- N#C[C@H](C[C@@H]1CCCNC1=O)NC(=O)C1CC2(CCC2)CN1C(=O)c1cc2c(Cl)cccc2[nH]1 (single isomer, unassigned) [803 (Isomer 2)]: > 30 µM
